The reported measurements were obtained from ChEMBL document CHEMBL1151112.

ASSAY_COMMENT: Induction of morphological transformation of rat ASK cells into astrocytes after 1 hr by light microscopy
Assay type: functional
MEASUREMENT_CONTEXT: read-out: ED50 (the source's name)
MEASUREMENT_TYPE: EC50

MOLECULE	EC50
CC1=C(CC/C(C)=C/C=C/C(C)=C/C(=O)O)C(C)(C)CCC1	< 10 µM
CC(=O)C1=C(/C=C/C(C)=C/C=C/C(C)=C/C(=O)O)C(C)(C)CC1	> 25 µM
C=C[C@@]1(C)CC(=O)[C@@]23OS(=O)O[C@H]4CCC(C)(C)[C@H]([C@H](O)[C@H](OC(C)=O)[C@@]2(C)O1)[C@]43C (some centres not stated)	3.12 µM
COC(=O)/C=C(C)/C=C/C=C(C)/C=C/C1=C(C)CCCC1(C)C [RETINOIC ACID METHYL ESTER]	> 25 µM
CC(=O)OC/C=C(C)/C=C/C=C(C)/C=C/C1=C(C)CCCC1(C)C [GILRETINOL ACETATE]	10 µM
CCOC(=O)/C=C(C)/C=C/C=C(C)/C=C/c1c(C)cc(OC)c(C)c1C [ETRETINATE]	> 25 µM

The record that follows has no EC50 shown yet.
// field: EC50; key: CC1=C(/C=C/C(C)=C/C=C/C(C)=C/C=O)C(C)(C)CCC1 [RETINAL] ; value = < 10 µM
